Assay: H9c2 cardiomyocyte survival under peroxide injury – uHTS, H9c2 cells, ATPLite luminescence, primary screen (AID 588492);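 further: 0% = DMSO wells with peroxide and 100% = DMSO wells without peroxide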
Settings: H9c2 cardiomyocytes, 2 h, at 20 µM, active compounds read high
Screen size: about 360,000 compounds; about 2,300 (0.64%) were called active. What follows is part of a selection rich in actives, with near analogues and random picks from the rest.
measured_metric: protection from H2O2 cell death (%)

1) CC1(C(=O)OCC(=O)Nc2ncc(Cl)cc2Cl)CC1(Cl)Cl (stereo not given) = -1.6
2) CN(C)S(=O)(=O)c1ccc(NC(=O)COC(=O)Cn2[nH]c(=O)c3ccccc3c2=O)cc1 = 72.5
3) COc1ccc(S(=O)(=O)NCCc2cc3ccc(C)c(C)c3[nH]c2=O)cc1 = -9.7
4) COc1ccc2[nH]c(=O)c(CNc3ccc(C)c(C)c3)cc2c1 = 57.7
5) CN(C)S(=O)(=O)c1ccc(NC(=O)COC(=O)c2n[nH]c3ccccc23)cc1 = -11.7

* * *

Assay: H9c2 cardiomyocyte survival under peroxide injury – uHTS, H9c2 cells, ATPLite luminescence, primary screen (AID 588492);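 further: 0% = DMSO wells with peroxide and 100% = DMSO wells without peroxide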
Conditions: H9c2 cardiomyocytes, 2 h, at 20 µM
Among all 360,000 compounds or so, about 2,300 (0.64%) were called active.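 Rule for the calls: active = compounds giving at least 50% protection of heart cells from peroxide-induced death in the single-dose screen, raw or plate-pattern-corrected value; inactive = the rest.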 The sample as a whole holds a higher share of actives than the screen did.
Possible outcomes: active, inactive

1) COc1cccc(N2CC(C(=O)NCc3n[nH]c(=O)c4ccccc34)CC2=O)c1 (centres undefined) = active
2) COc1cccc(C2c3[nH]c4ccccc4c3CCN2Cc2cccc(C)n2)c1 (centres undefined) = inactive
3) CCOc1cc(N2CCOCC2)c(OCC)cc1NC(=O)COC(=O)[C@H](Cc1c[nH]c2ccccc12)NC(C)=O = inactive
4) OCC1(Cc2ccccc2C(F)(F)F)CCN(Cc2cccc3cnccc23)CC1 = inactive
5) Cc1oc(C(N)=O)cc1COc1ccc(C(N)=O)cc1 = inactive
6) CC12CCC(=O)N1C(C(=O)Nc1ccc(F)c(F)c1F)CS2 (centres undefined) = inactive
7) COc1ccc(C(=O)CSc2nnc(NC(=O)C3CC(=O)N(c4cccc(OC)c4)C3)s2)cc1 (centres undefined) = inactive
8) CCCCCN(C(=O)NC(=O)Nc1ccccc1C)S(C)(=O)=O = inactive
9) O=C(N/N=C/c1sc(N2CCCCC2)nc1-c1cccs1)c1cccnc1 = active
10) Nc1scc(-c2ccncc2)c1Cl = inactive
11) [2H]C(CCOS(N)(=O)=O)c1ccccc1 (centres undefined) = inactive
12) COc1ccc(S(=O)(=O)N2CCN(c3cnccn3)CC2)cc1 = inactive
13) Cn1c2c(c(=O)n(C)c1=O)C(c1cccc([N+](=O)[O-])c1)Nc1ccccc1O2 (centres undefined) = active
14) COc1cccc2sc(NNC(=O)c3nc4ccccc4s3)nc12 = active
15) CCOC(=O)Nc1ccc(S(=O)(=O)N(C)C(C)C)cc1 = inactive
16) COc1ccc(Cl)cc1S(=O)(=O)N1CCN(CC(=O)C(C)(C)C)CC1 = inactive
17) CCOc1cc(N2CCOCC2)c(OCC)cc1NC(=O)COc1cccc2cccnc12 = active
18) COc1ccc(-c2[nH]ncc2CN(C)Cc2cccnc2)c(F)c1 = inactive
19) Cn1cccc1C(=O)NC(=O)COC(=O)Cc1coc2ccc3ccccc3c12 = inactive
20) COc1cc(N=Cc2c(O)[nH]c3ccccc23)cc(OC)c1OC = active
21) Cc1cccc(C)c1NC(=O)CNC(=O)c1ccc2c(c1)OCCO2 = inactive
22) COc1cccc(CNC(=O)C2CC(=O)N(C3CCCCCCC3)C2)c1 (centres undefined) = inactive
23) O=C(CN1CCN(S(=O)(=O)c2cc(Cl)ccc2Cl)CC1)c1ccc(O)c(O)c1 = active
24) COc1cccc(-c2nnc(NC(=O)c3ccc(S(=O)(=O)N(CC(C)C)CC(C)C)cc3)o2)c1 = active
25) COc1cc2[nH]c(O)c(C=O)c2cc1OC = inactive
26) CCOc1cc(N2CCOCC2)c(OCC)cc1NC(=O)C1=NN(c2cccc(C)c2)C(=O)CC1 = inactive
27) CC(C)c1nnc(NC(=O)C2CC(=O)N(CCc3ccc(F)cc3)C2)s1 (centres undefined) = inactive
28) O=C(OC1CCOC1=O)c1ccc(-c2nc3ccccc3s2)s1 (centres undefined) = inactive
29) Cc1nc(NC(=O)c2ccc3c(c2)OCCO3)ccc1Br = inactive
30) O=C(Nc1nnc(-c2ccccc2)o1)c1cccc(S(=O)(=O)N2CCOCC2)c1 = inactive
31) CC1CCN(C(=O)CN(c2ccc(Oc3ccccc3)cc2)S(C)(=O)=O)CC1 = inactive
32) O=S(=O)(Nc1ccc2ccccc2c1)N1CCCCC1 = inactive
33) COc1ccc(CN2CCC(c3nc4ccc(Cl)cc4[nH]3)CC2)cc1 = inactive
34) COc1ccc([C@H]2N[C@]3(CCCN(CC4CCCCC4)C3=O)[C@H]3C(=O)N(C)C(=O)[C@@H]23)cc1 = inactive
35) CCCn1c(SCC(=O)Nc2ccc(C)c(S(=O)(=O)N3CCOCC3)c2)n[nH]c1=O = inactive
36) CN1CCNC(=O)C1CC(=O)N1CC=C(c2ccc(F)cc2)CC1 (centres undefined) = inactive
37) CN(C)C(CNC(=O)CCCOc1ccccc1)c1ccco1 (centres undefined) = inactive
38) O=C(COc1nsnc1N1CCOCC1)Nc1ccccc1Cl = inactive
39) COc1cccc(/C=C(/CC(=O)Nc2ccc(N3CCOCC3)cc2)c2nc3ccccc3s2)c1 = inactive
40) CCOc1ccc2[nH]c(=O)c(CN(CCCO)S(=O)(=O)c3ccc(F)cc3)cc2c1 = inactive
41) CC(=O)Nc1ccc(-c2cn3cccnc3n2)cc1 = inactive
42) Cc1ccc2sc(NNC(=O)c3ccc4c(c3)OCCO4)nc2c1C = active
43) CCCc1c(C)nc2scc(-c3ccc(Cl)cc3)n2c1=O = inactive
44) Cc1ccc(NC(=O)C(C)OC(=O)Cc2c[nH]c3ccccc23)cc1S(=O)(=O)N1CCOCC1 (centres undefined) = inactive

* * *

Experiment: H9c2 cardiomyocyte survival under peroxide injury – uHTS, H9c2 cells, ATPLite luminescence, primary screen (AID 588492);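 further: 0% = DMSO wells with peroxide and 100% = DMSO wells without peroxide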
Conditions: H9c2 cardiomyocytes, 2 h, at 20 µM, active compounds read high
The campaign covered roughly 360,000 compounds. About 2,300 (0.64%) were called active. Only a selection was taken, and actives are over-represented in it overall.
measured_metric: protection from H2O2 cell death

1. CC(=O)c1cccc(-c2cnc3c(NC=O)cc(-c4ccc(N(C)C)cc4)cn23)c1 = 34.4% (inactive)
2. CC(=O)c1ccc(-c2cnc3c(NC=O)cc(-c4cccc(NS(C)(=O)=O)c4)cn23)cc1 = 64.4% (active)
3. Cc1ccc(C(=O)N/C(=C/c2ccc(-c3cccc([N+](=O)[O-])c3)o2)C(=O)NCCCN(C)C)cc1 = -22.6% (inactive)
4. Cc1c(Cl)c([N+](=O)[O-])nn1CCCC(=O)NC(C)c1ccccc1 (stereo unspecified) = 5.3% (inactive)
5. Cc1ccc(C(=O)N(CC(=O)NC2CCCC2)c2ccc(F)cc2)s1 = -2.3% (inactive)
6. O=C(Cn1[nH]c(=O)c2ccccc2c1=O)Nc1cccc(-c2nnc3n2CCCCC3)c1 = 23.4% (inactive)
7. COc1ccc(CC(N)c2csc(NC(=O)Cc3ccccc3)n2)cc1 (stereo unspecified) = 10.4% (inactive)
8. CC(=O)c1cccc(-c2cnc3c(NC=O)cc(-c4ccccc4Oc4ccccc4)cn23)c1 = -13.2% (inactive)
9. O=C(NCC(O)c1nc2ccccc2[nH]1)c1ccc(Br)cc1 (stereo unspecified) = -3.3% (inactive)
10. O=C(Nc1ccccc1)c1cc2ccccc2[nH]1 = 3.8% (inactive)
11. Cc1ccc(-c2csc(NC(=O)Cn3[nH]c(=O)c4ccccc4c3=O)n2)cc1 = 52% (active)
12. Cc1cc(C)c(-c2csc(NC(=O)CCCc3nc4ccccc4c(=O)[nH]3)n2)c(C)c1 = -4.2% (inactive)
13. COCCNC(=S)c1ccc(OC)cc1 = 5.4% (inactive)
14. CC1(C)OC(=O)C2=C(CC(c3ccccc3)OC2CCc2ccccc2)O1 (stereo unspecified) = -19.2% (inactive)
15. CCCCN(CCCC)CCC(O)c1cc2c(Cl)cc(Cl)cc2c2cc(C(F)(F)F)ccc12 (stereo unspecified) = -33.9% (inactive)
16. Cc1cccc(Nc2nnc(SCC(=O)c3c(N)n(C4CC4)c(=O)[nH]c3=O)s2)c1C = -2.2% (inactive)
17. Cc1nn(Cc2ccccc2Cl)c(C)c1NC(=O)Cn1nc([N+](=O)[O-])c(Cl)c1C = 15.4% (inactive)
18. Cc1c(Cl)c([N+](=O)[O-])nn1Cc1ccc(C(=O)N/N=C\c2cc(Cl)ccc2O)o1 = 67.5% (active)
19. Cc1cccc(NC(=O)N2CCCCCC2)c1C = -0.5% (inactive)
20. CCc1ccc(-c2nc(SCC(=O)NC3CCCC3)n[nH]2)cc1 = -11.6% (inactive)
21. Cn1nc([N+](=O)[O-])nc1Sc1ccc(C(C)(C)C)cc1 = -11.1% (inactive)
22. CC(C)(C)c1ccc(NC(=O)COC(=O)CCc2nc3ccccc3c(=O)[nH]2)cc1 = 36.5% (inactive)
23. COc1cccc(-c2cnc3c(NC(C)=O)cc(-c4cccc(NC(C)=O)c4)cn23)c1 = 41.9% (inactive)
24. COC(=O)c1ccc(C(NC(=O)OCc2ccccc2)/C(C)=C/[C@@H](C)C(=O)NCc2ccc(OC)c(OC)c2)cc1 (stereo partly specified) = 52% (active)
25. CCNC(=O)C1(C)CCCN1C(=O)c1ccc(N(C)C)cc1 (stereo unspecified) = 0.7% (inactive)
26. C[C@H]1Cn2cnc(C(=O)N[C@@H](Cc3c[nH]c4ccccc34)C(=O)OC(C)(C)C)c2C(=O)N1 = 99.5% (active)
27. CCN(CC)c1ccc(C(=O)NNC(=O)CCc2nc3ccccc3c(=O)[nH]2)cc1 = 56.2% (active)
28. Cc1nc2c(OCc3ccc(Cl)cc3)cccn2c1N(C)Cc1cccs1 = -9.7% (inactive)
29. O=C(NCC(=O)N(Cc1cccs1)C(C(=O)NC1CCCCC1)c1ccco1)c1cccs1 (stereo unspecified) = 68.2% (active)
30. COCc1c(C(=O)N/N=C\c2cccnc2)nnn1-c1nonc1N = -0.9% (inactive)
31. C=CCn1c(-c2ccc(Cl)cc2)ccc(C#N)c1=O = -10% (inactive)
32. CC(=O)c1cccc(-c2cnc3c(NC=O)cc(-c4ccc(N5CCN(C)CC5)cc4)cn23)c1 = 0.9% (inactive)
33. CC(C)(C)C(=O)Nc1cccc(-c2ccc[nH]2)n1 = 5.3% (inactive)
34. O=C(c1ccc(N2CCOCC2)c([N+](=O)[O-])c1)N1CCN(S(=O)(=O)c2cccs2)CC1 = -4.8% (inactive)
35. O=C(NCC(=O)N(CC1CCCO1)C(C(=O)NC1CCCCC1)c1ccccc1)c1ccco1 (stereo unspecified) = 2.8% (inactive)
36. C[C@@H]1Cn2cnc(C(=O)Nc3ccc(CNC(=O)OC(C)(C)C)cc3)c2C(=O)N1 = -12.9% (inactive)
37. N#C/C(=C\c1ccc(-c2cccc([N+](=O)[O-])c2)o1)C(=O)NCCN1CCOCC1 = 55% (active)
38. Cc1ccc(-c2ccc(/C=N/NC(=O)CN3CCOCC3)o2)cc1[N+](=O)[O-] = 7.6% (inactive)
39. CCOC(=O)C1CCN(S(=O)(=O)c2ccc3c(c2)N(C)C(=O)CC(=O)N3C)CC1 = -1.6% (inactive)
40. CCc1c(C)nc2ncnn2c1N1CCC(C(=O)NCc2ccc3c(c2)OCO3)CC1 = -1.5% (inactive)
41. CC(=NNC(=S)N1CCCCCC1)c1ccccn1 = -14.3% (inactive)

Origin of values: PubChem BioAssay AID588492
